The reported numbers originate from PubChem BioAssay (NCI).

# TGI annotations
# System: SF-539 CNS
# Experiment: NCI tumour cell line growth inhibition, 48 h
Experimental Endpoint: TGI (µM)

Molecule	Experimental System	Experimental Endpoint	Result Operator	Meas Value
CCC1OC(=O)CC(O)C(C)C(OC2OC(C)C(O)C(N(C)C)C2O)C(CC=O)CC(C)C(=O)/C=C/C2(C)OC2C1C (stereo not drawn)	SF-539 CNS	TGI	=	80.5
C=CCCCCNC(=O)C[C@@H]1C2=C(CC[C@H]1O[Si](C)(C)C(C)(C)C)N1C(=O)CCC/C=C\C1C2 (stereo partly drawn)	SF-539 CNS	TGI	=	31.3
C=C1C(O)C2C(=C(CCC3CC3)C13CC3)C(=O)C(C)(C)C2O (stereo not drawn)	SF-539 CNS	TGI	>	100
NS(=O)(=O)c1cc2c(cc1Cl)NC(/C(=N/NC(=O)c1ccncc1)C1C(=O)NC(=O)NC1=O)=NS2(=O)=O	SF-539 CNS	TGI	>	100
CC12CCC([C@H](Nc3cc(C(F)(F)F)cc(C(F)(F)F)c3)C1=O)C2(C)C (stereo partly drawn)	SF-539 CNS	TGI	>	100
COc1ccc(-c2ccc(-c3ccc(C(=N)N)c(F)c3)s2)cc1	SF-539 CNS	TGI	=	2.63
O=C1C(Cl)C2(CC(/C=C/c3cccs3)=NN2c2cccc(S(=O)(=O)O)c2)N1c1nc2ccccc2s1 (stereo not drawn)	SF-539 CNS	TGI	>	100
C[C@]12CCC(N3CCCC3)CC1=CC[C@@H]1[C@@H]2CC[C@]2(C)C(O)[C@H](n3ccnc3)C[C@@H]12 (stereo partly drawn)	SF-539 CNS	TGI	=	46.5

###

# Test system: SK-MEL-2 melanoma
# Experiment: NCI tumour cell line growth inhibition, 48 h; in the data active means GI50 below about 0.43 µM; inactive means the rest
Outcomes: True for active, False for inactive

Compound	Label Value
c1ccc2nc(N/N=C3\CCCCC3C3CCCCC3)ccc2c1 (configuration not stated)	False
CC(C)N(C(C)C)[PH+]1O[PH+](N(C(C)C)C(C)C)O[PH+](N(C(C)C)C(C)C)O[PH+](N(C(C)C)C(C)C)O1.[C-]#[O+].[C-]#[O+].[C-]#[O+].[C-]#[O+].[C-]#[O+].[C-]#[O+].[C-]#[O+].[C-]#[O+].[Mo].[Mo] (configuration not stated)	False
Cc1ccc(C2=Nc3c(N)nc(N)nc3NC(c3cccc(Nc4ccnc5cc(C(F)(F)F)ccc45)c3)C2)cc1 (configuration not stated)	False
Cc1ccc(CN(C)c2ccc(CO)c(Cl)c2)cc1	False
N/C(=N\N=C/c1c2ccccc2c(Cl)c2ccccc12)NO	False
O=c1ncc(I)cn1C1CC(O)C(CO)O1 (configuration not stated)	False
CCCN1C/C(=C\c2ccc(O)c(OC)c2)C(=O)/C(=C/c2ccc(O)c(OC)c2)C1	False
COc1cccc2c1O/C(=C\c1ncc([N+](=O)[O-])n1C)C2=O	True
CC(C)Oc1ccc(-c2nn([C@@H](C)c3oc4ccc(F)cc4c(=O)c3-c3cccc(F)c3)c3ncnc(N)c23)cc1F	False
CC(=O)NC1C(OCc2ccccc2)OC(CO)C(O)C1OC(C)C(=O)NC(C)C(=O)N[C@@H](CCC(=O)OCCCNC1c2ccccc2Nc2cccc([N+](=O)[O-])c21)C(N)=O (some centres not stated)	True
Cc1ccc(C2=NN(c3ccc(S(C)(=O)=O)cc3)C(=O)CC2)cc1	False
[2H]c1nc(C)nc([2H])c1-c1cc(NC[C@@H](C)c2cccc3c(C(=O)NC)ccnc23)ncn1	False
COc1cc2c3c(n(CCCNC4=NCCS4)c(=O)c2cc1OC)-c1cc2c(cc1C3=O)OCO2	False
Cc1oc2c(C(=O)N/N=C\c3ccc(O)cc3O)c[nH]c2c1C	False
Cc1nc2cc(-c3nn(C(C)C)c4ncnc(N)c34)ccc2o1	True
COC(=O)/C=C1/SC(=Nc2ccc(F)cc2)N(CCc2c[nH]c3ccc(O)cc23)C1=O	False
CC1(C)CC[C@]2(C(=O)Nc3ccccn3)CC[C@]3(C)C(=CC[C@@H]4[C@@]5(C)C/C(=C/c6ccncc6)C(=O)C(C)(C)[C@@H]5CC[C@]43C)[C@@H]2C1	False
